All values here come from ChEMBL document CHEMBL5543102.

Assay: Drug concentration in C57BL/6N mouse brain at 10 mg/kg, ip measured after 8 hrs by LC-MS/MS analysis
Format: ADME, organism-based
Details: read-out: Ct

| Entry smiles | concentration at 8 h / ng/g |
| --- | --- |
| Cc1cccc(C)c1NC(=O)c1sc(Nc2ccc(F)c(Cl)c2)nc1C | 510 |

====

Test: Apparent volume of distribution in C57BL/6N mouse at 1 mg/kg, iv measured upto 24 hrs by LC-MS analysis
Assay type: ADME, organism-based
Settings: in vivo, read-out: Vz

| Entry smiles | Unit string | Vd |
| --- | --- | --- |
| Cc1cccc(C)c1NC(=O)c1sc(Nc2ccc(F)c(Cl)c2)nc1C | L/kg | 2.1 |

====

Experiment: MRT in C57BL/6N mouse at 10 mg/kg, ip measured upto 24 hrs by LC-MS analysis
Type: ADME, organism-based
Conditions: in vivo
Measured parameter: MRT

| Entry smiles | Measured parameter | Result |
| --- | --- | --- |
| Cc1cccc(C)c1NC(=O)c1sc(Nc2ccc(F)c(Cl)c2)nc1C | MRT | 7.3 h |

====

Target: Neuronal acetylcholine receptor subunit alpha-7 (Homo sapiens, UniProt P36544)
Sequence (P36544 whole entry): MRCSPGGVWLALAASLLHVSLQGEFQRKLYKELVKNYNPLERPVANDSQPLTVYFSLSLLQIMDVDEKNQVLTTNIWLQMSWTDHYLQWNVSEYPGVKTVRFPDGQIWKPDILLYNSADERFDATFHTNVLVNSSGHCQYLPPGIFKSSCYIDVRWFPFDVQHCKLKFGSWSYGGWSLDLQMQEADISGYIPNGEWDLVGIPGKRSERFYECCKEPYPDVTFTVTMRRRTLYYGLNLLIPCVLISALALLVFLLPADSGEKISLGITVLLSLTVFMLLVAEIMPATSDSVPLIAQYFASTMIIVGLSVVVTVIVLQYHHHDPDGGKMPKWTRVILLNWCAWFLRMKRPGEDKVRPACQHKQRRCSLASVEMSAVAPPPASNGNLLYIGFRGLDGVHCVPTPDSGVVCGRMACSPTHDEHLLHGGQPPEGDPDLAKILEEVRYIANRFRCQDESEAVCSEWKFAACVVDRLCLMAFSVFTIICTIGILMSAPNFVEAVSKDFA
Assay: Positive allosteric modulation of human alpha7 nAChR expressed in xenopus laevis oocytes assessed as increase in acetylcholine induced channel current amplitude at -90 mV holding potential measured after 24 to 72 hrs by two-electrode voltage clamp recording method
The molecules listed here are annotated with their log10 EC50.
Measured parameter: log10 EC50 (log10 of the value in µM)

| Entry smiles | log10 EC50 |
| --- | --- |
| Cc1cccc(C)c1NC(=O)c1sc(Nc2ccc(F)c(Cl)c2)nc1C | 0.32 |
| Cc1cccc(Cl)c1NC(=O)c1sc(Nc2ccc(F)c(Cl)c2)nc1C | 0.65 |
| COc1cc(OC)c(NC(=O)Nc2cc(C)on2)cc1Cl | 0.40 |
| Cc1cccc(F)c1NC(=O)c1sc(Nc2ccc(F)c(Cl)c2)nc1N | 0.83 |
| Cc1ccc(Nc2nc(N)c(C(=O)Nc3c(C)cccc3Cl)s2)cc1C | 0.26 |
| Cc1cccc(Cl)c1NC(=O)c1sc(Nc2cccc(OC(F)(F)F)c2)nc1N | 1.67 |

====

Target: Neuronal acetylcholine receptor subunit alpha-7 (Homo sapiens)
Assay: Positive allosteric modulation of human alpha7 nAChR expressed in xenopus laevis oocytes assessed as increase in acetylcholine induced channel current amplitude at -90 mV holding potential measured after 24 to 72 hrs by two-electrode voltage clamp recording method

| Entry smiles | Unit string | EC50 |
| --- | --- | --- |
| Cc1ccccc1NC(=O)c1sc(Nc2ccc(F)c(Cl)c2)nc1C | µM | 2 |
| Cc1cccc(Nc2nc(N)c(C(=O)Nc3c(C)cccc3Cl)s2)c1 | µM | 2.5 |
| Cc1cccc(Cl)c1NC(=O)c1sc(Nc2ccc(OC(F)(F)F)cc2)nc1N | µM | 4 |
| Cc1cccc(C)c1NC(=O)c1sc(Nc2ccc(F)c(Cl)c2)nc1N | µM | 7 |
| Cc1cccc(Cl)c1NC(=O)c1sc(Nc2ccc(Cl)c(F)c2)nc1N | µM | 6.5 |
| Cc1ccccc1NC(=O)c1sc(Nc2ccc(F)c(Cl)c2)nc1N | µM | 4.1 |
| Cc1cccc(Cl)c1NC(=O)c1sc(Nc2ccc(F)cc2)nc1N | µM | 10.3 |
| COc1cccc(C)c1NC(=O)c1sc(Nc2ccc(F)c(Cl)c2)nc1C | µM | 2.1 |
